Target: Purified recombinant ADAMTS-7 (rat prodomain/human catalytic domain, SEQ ID No. 01 or 02) (Homo sapiens)
Construct: rat ADAMTS-7 signal peptide + prodomain (rat 1-217, Q1EHB3) (N); 2xStrep tag (C); 6xHis tag (C)
Sequence (Q9UKP4 237-537): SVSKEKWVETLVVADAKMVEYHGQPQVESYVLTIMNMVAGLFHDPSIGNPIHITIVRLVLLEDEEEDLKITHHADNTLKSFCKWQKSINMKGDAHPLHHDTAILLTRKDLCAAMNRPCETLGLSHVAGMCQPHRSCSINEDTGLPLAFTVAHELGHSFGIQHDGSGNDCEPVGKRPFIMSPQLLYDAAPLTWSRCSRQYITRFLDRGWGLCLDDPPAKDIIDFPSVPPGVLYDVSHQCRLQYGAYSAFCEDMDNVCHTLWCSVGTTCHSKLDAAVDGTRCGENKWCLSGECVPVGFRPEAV
Assay: Assay for ADAMTS-7 enzymatic activity (FRET substrate cleavage)
Settings: FRET substrate SEQ ID No. 11, 120 min at 32° C.; read-out: ADAMTS7-IC50
Observation type: IC50 (µM)
Give bare numbers, in µM.

Use the examples below as a reference point.
>>> df
                                   compound  observation_type  observed_result
0  O=C1NC(=O)[C@](CNC(=O)c2cnc(-c3ccccc3)o2)(C2CC2)N1 [Example 59]              IC50             0.55
1  CS(=O)(=O)c1ccc(-n2ncc(C(=O)NC[C@@]3(C4CC4)NC(=O)NC3=O)n2)cc1 [Example 28]              IC50             0.87
2  CC(C)C1(CNC(=O)c2cnn(-c3ccc(F)cc3F)n2)NC(=O)NC1=O (racemic) [Example 87]              IC50            0.098

Look up IC50 for the entries below, preserving their order.
1. O=C1NC(=O)C(CNC(=O)c2cnn(-c3ccc(F)cc3F)n2)(c2nccs2)N1 (racemic) [Example 115]
2. O=C1NC(=O)C(CNC(=O)c2cnn(-c3ccccc3)n2)(C2CCCC2)N1 (centres unmarked) [Example 83]
3. CC(C)(C)C1(CNC(=O)c2cnn(-c3ccc(F)cc3)n2)NC(=O)NC1=O (centres unmarked) [Example 3]

0.087
0.12
0.079
